Reported IC50 values follow for various compounds
# test_system: Polyadenylate-binding protein 1 (Homo sapiens, UniProt P11940)
# Sequence (P11940 whole entry): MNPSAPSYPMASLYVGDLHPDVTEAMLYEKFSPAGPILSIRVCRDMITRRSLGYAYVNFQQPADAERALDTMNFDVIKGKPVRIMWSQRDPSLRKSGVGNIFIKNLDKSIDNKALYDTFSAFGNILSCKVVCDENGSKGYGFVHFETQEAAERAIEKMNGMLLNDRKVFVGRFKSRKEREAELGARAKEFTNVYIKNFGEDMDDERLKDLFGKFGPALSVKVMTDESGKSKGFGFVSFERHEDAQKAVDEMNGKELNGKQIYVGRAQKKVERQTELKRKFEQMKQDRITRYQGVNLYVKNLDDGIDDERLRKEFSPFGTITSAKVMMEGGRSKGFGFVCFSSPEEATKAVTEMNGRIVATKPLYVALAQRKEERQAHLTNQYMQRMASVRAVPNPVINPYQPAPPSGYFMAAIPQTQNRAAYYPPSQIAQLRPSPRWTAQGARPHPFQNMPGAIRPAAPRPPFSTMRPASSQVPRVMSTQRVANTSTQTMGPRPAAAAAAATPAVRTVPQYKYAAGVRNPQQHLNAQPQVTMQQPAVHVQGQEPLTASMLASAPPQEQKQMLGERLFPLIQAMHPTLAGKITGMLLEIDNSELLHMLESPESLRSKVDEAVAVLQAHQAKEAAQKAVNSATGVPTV
# assay_comment: PABP1 MLLE–PAM2 interaction inhibitors, dose response, miRNA deadenylation inhibitor project, biochemical, fluorescence polarization, Cy5-PAM2 peptide, secondary (AID 602260)
# Type: functional
# stated_conditions: read-out: IC50_Mean
Activity calls are given as the source filed them.
endpoint_label: IC50

- Cc1cc2cc(CNC(=O)c3ccc(S(=O)(=O)N(C)C)cc3)ccc2n1C: > 66 µM (inactive)
- COc1cc(/C=C/C(=O)Nc2nnc(CC(C)(C)C)s2)cc(OC)c1OC: > 66 µM (inactive)
- Nc1nc2ccc(S(=O)(=O)N3CCCCC3)cc2s1: > 66 µM (inactive)
- O=[N+]([O-])c1ccc(S(=O)(=O)Nc2ccc3c(c2)OCCO3)cc1: > 66 µM (inactive)
- Cc1cc2ncn(-c3ncccc3[N+](=O)[O-])c2cc1C: > 66 µM (inactive)
- Cc1ccccc1-c1nc(S(=O)(=O)c2ccccc2)c(N2CCCC2)o1: > 66 µM (inactive)
- C/C(=N\NC(=S)NCCc1ccccc1)c1ccc(O)cc1O: > 66 µM (inactive)
- O=C(NC(=S)Nc1cccc(Cl)c1N1CCOCC1)c1cccs1: > 66 µM (inactive)

* * *

Reported EC50 values follow for various compounds
# assay_comment: inhibitors of SNCA 5'UTR-driven reporter translation, confirmation, H4 neuroglioma cells, luminescence (AID 1988)
# Type: functional, cell-based
The source made the active and inactive calls.
endpoint_label: EC50

• COc1ccc(NC(=O)c2nc(S(=O)(=O)Cc3cccc(C)c3)ncc2Cl)c(OC)c1 = 36.7 µM (active)
• Cc1cc(NC(=O)CSc2nc3ccccc3[nH]2)n(-c2ccccc2)n1 = > 120 µM (not active)
• Cc1cccc(NC(S)=NCCSc2ccc(Cl)cc2)c1 = 84.8 µM (active)
• COc1ccc(NC(=O)CN2C(=O)COc3ccc(S(=O)(=O)N4CCCCCC4)cc32)cc1 = > 120 µM (not active)
• CC(C)(C)c1ccc(CSc2cnn(C(C)(C)C)c(=O)c2Cl)cc1 = > 120 µM (not active)
• Cc1cc(-c2cc(-c3ccc(Cl)cc3)nc(N)c2C#N)co1 = > 120 µM (not active)
• CCOc1ccccc1-c1nnc(SCC(=O)NC2CC3CCC2C3)n1CC (stereo not given) = 16.7 µM (active)
• CCOC(=O)c1cccc(NC(=O)Nc2ccc(OCC)cc2)c1 = 9.81 µM (active)
• COc1cccc(N2CCN(C(=O)c3ccc(C[S+]([O-])c4ccccc4Cl)o3)CC2)c1 (stereo not given) = < 0.1 µM (active)
• CCn1c(SCc2cc(O)nc3ccccc23)nnc1C1CC1 = > 120 µM (not active)

* * *

# System: P388;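 further: compound exposure lasted 48 hours before growth was measured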
# assay_comment: cells
# Type: functional
# stated_conditions: Mus musculus
Calls of active or inactive are those of the source.
Possible outcomes: t for active, f for inactive

* Nc1nc(F)nc2c1ncn2C1OC(COP(=O)(O)O)C(O)C1O (centres undefined) | f
* Cc1cc(C)c(C2=NO[C@@H]3[C@H]2C(=O)C=C2N(Cc4ccccc4)CCO[C@@]23O)c(C)c1 | f
* COc1cc(C2c3cc4c(cc3[C@@H](Nc3cccc([N+](=O)[O-])c3)C3COC(=O)[C@H]23)OCO4)cc(OC)c1O (some centres undefined) | t
* CN(C)CCNC(=O)c1ccc(Cl)c2ccc(-c3ccccc3)nc12 | f
